Here, each record is paired with measured log10 of Ki data.
Target chain: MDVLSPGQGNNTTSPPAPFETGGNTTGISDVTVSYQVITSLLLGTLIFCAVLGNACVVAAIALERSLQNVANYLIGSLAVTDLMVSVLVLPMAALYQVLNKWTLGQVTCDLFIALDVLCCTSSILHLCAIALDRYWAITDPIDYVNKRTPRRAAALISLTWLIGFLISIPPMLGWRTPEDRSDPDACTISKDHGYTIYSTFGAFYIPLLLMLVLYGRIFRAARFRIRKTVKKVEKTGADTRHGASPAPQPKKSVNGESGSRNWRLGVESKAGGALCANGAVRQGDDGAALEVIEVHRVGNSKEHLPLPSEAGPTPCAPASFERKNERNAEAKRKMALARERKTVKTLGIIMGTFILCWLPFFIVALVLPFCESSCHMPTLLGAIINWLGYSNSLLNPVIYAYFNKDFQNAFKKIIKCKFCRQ
In plain terms, each number is the log10 of measured Ki in nM.

Would you please look over these solved cases?
Smiles structure	log10 of Ki
COc1ccccc1N1CCN(CCCCN2C(=O)c3cccc4c(N)ccc(c34)C2=O)CC1	0.83
COc1ccccc1N1CCN(CCCCCN2C(=O)c3ccc(N(C)C)cc3C2=O)CC1	0.89

Q. Fill in log10 of Ki for record `COc1ccccc1N1CCN(CCCCN2C(=O)c3ccc(N(C)C)cc3C2=O)CC1`
A. -0.30

Q. Please list log10 of Ki recorded for the compound `COc1ccccc1N1CCN(CCCN2C(=O)c3cccc4c(N)ccc(c34)C2=O)CC1`
A. 2.06

###

# Target entity: UniProtKB P08908
# Test: biochemical
# Description: Displacement of [3H]8-OH-DPAT from human recombinant 5HT1A receptor expressed in HEK293 cells after 120 mins
Reported pKi is given for each of the following compounds.
Give only the number. pKi is defined as minus log10 of concentration in molar units.

Check out these entries, answers already filled in.
Smiles structure	Endpoint	Reading
COc1ccccc1N1CCN(CCCCNS(=O)(=O)c2cccc3c(N(C)C)cccc23)CC1	pKi	6.82
COc1ccccc1N1CCN(CCN2C(=O)c3cccc4c(N)ccc(c34)C2=O)CC1	pKi	7.36
COc1ccccc1N1CCN(CCN2C(=O)c3ccc(N(C)C)cc3C2=O)CC1	pKi	7.82

Q. Give reported pKi for `COc1ccccc1N1CCN(CCCCCNS(=O)(=O)c2cccc3c(N(C)C)cccc23)CC1` (UniProtKB P08908)
A. 7.27
